Experiment: Pharmacokinetics and oral bioavailability of D8.3.p1 and D10.1 in Balb/C female mice (PO, SQ, IV)
Format: in vivo
Details: D8.3.p1 IV 1 mg/kg, mean n=3; read-out: Initial concentration C0
Where a SMILES comes first, the peptide text is derived from it. [ ]: non-standard residue; d: D form. dNMeL = CN[C@H](CC(C)C)C(=O)O
measuredMetric: C0 (nM)
Return type: number; implicit unit nM.

Ask | Given the compound CC[C@@H](C)[C@H]1NC(=O)[C@@H](CC(C)C)NC(=O)[C@@H](CC(C)C)N(C)C(=O)[C@@H]2CCCN2C(=O)[C@@H](C(C)C)NC(=O)[C@H](CC(C)C)NC(=O)[C@@H](CC(C)C)N(C)C(=O)[C@@H]2CCCN2C1=O [Design D8.3.p1, DLEU DVAL PRO *DLEU DLEU DILE PRO *DLEU] (cyclo(L[dV]P[dNMeL][dL][dI]P[dNMeL])) , what is its reported C0?
Reply | 1530
